meta.source: patent EP4596580A1

tested.target: T1, His-human LIGHT (human)
T1 construct: also called His-huLIGHT; free LIGHT
T1 chain: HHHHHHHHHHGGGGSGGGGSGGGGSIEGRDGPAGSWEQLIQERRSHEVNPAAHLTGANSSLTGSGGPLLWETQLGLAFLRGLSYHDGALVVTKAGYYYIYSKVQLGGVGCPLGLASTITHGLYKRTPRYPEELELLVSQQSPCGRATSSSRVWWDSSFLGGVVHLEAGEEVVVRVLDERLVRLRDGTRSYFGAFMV
run.description: ELISA, His-huLIGHT coated
assay.endpoint: EC50

* hum_LT-m58-1 (antibody, human IgG4, V domains shown, humanized from LT-m58) VH: QVQLVQSGAEVKKPGASVKVSCKASGYTFIDHIMNWVRKAPGQGLEWMGRIYPVSGETNYNQKFMGRATFTVDRSTSTVYMELSSLRSEDTAVYYCGRGSYYWNAMDYWGQGTLVTVSS VL: EIVMTQSPATLSVSPGERATLSCKASQSVDFDGDSYMNWYQQKPGQPPRLLIYSASNLESGIPARFSGSGSGTEFTLTISSLQSEDFAVYYCQQSIEDPWTFGQGTKLEIK | 0.0141 nM
* hum_LT-m58-5 (antibody, human IgG4, V domains shown, humanized from LT-m58) VH: QVQLVQSGAEVKKPGASVKVSCKASGYTFIDHIMNWVRKAPGQGLEWIGRIYPVSGETNYNQKFMGRVTFTVDRSTSTVYMELSSLRSEDTAVYYCGRGSYYWNAMDYWGQGTLVTVSS VL: EIVMTQSPATLSVSPGERATLSCKASQSVDFDGESYMNWYQQKPGQAPRLLIYSASNLESGIPARFSGSGSGTEFTLTISSLQSEDFAVYYCQQSIEDPWTFGQGTKVEIK | 0.0305 nM
* hum_LT-m58-6 (antibody, human IgG4, V domains shown, humanized from LT-m58) VH: QVQLVQSGAEVKKPGASVKVSCKASGYTFIDHIMNWVRKAPGQGLEWMGRIYPVSGETNYNQKFMGRATFTVDRSTSTVYMELSSLRSEDTAVYYCGRGSYYWNAMDYWGQGTLVTVSS VL: DIVMTQSPDSLAVSLGERATINCKASQSVDFDGESYMNWYQQKPGQPPKLLIYSASNLESGVPDRFSGSGSGTDFTLTISSLQAEDVAVYYCQQSIEDPWTFGQGTKVEIK | 0.0349 nM
